Test: HILIC, Merck SeQuant ZIC-pHILIC, 150 × 2.1 mm, 5 µm, 40 °C, 0.3 mL/min, estimated dead time 1.1 min; A: acetonitrile; B: water + 2.8 mM ammonium formate, pH 9; gradient (min/%B) 0/5 1/5 10/51 13/51 13.1/5 20/5
Settings: stereoisomer not certain
metric: LC retention time (min)
Express it in min; write the number only.

// solved cases for LC retention time follow
molecule="NC(N)=NCC(=O)O [GUANIDINOACETATE]" metric="LC retention time" resultnumber=9.05
molecule="OCC1OC(OC2OC(CO)C(O)C(O)C2O)C(O)C(O)C1O (centres undefined) [TREHALOSE]" metric="LC retention time" resultnumber=9.23
molecule="NC(Cc1ccc(O)cc1)C(=O)O (centres undefined) [TYROSINE]" metric="LC retention time" resultnumber=8.2

## Input Which LC retention time value is on record for Cc1ncc(CO)c(CO)c1O [PYRIDOXINE] ?
## Output 3.69

* * *

Test: HILIC, Merck SeQuant ZIC-pHILIC, 150 × 2.1 mm, 5 µm, 40 °C, 0.3 mL/min, estimated dead time 1.1 min; A: acetonitrile; B: water + 2.8 mM ammonium formate, pH 9; gradient (min/%B) 0/5 1/5 10/51 13/51 13.1/5 20/5
Settings: stereoisomer not certain
This section presents compounds with their documented LC retention time values.
Give a bare numeral; the unit min is implied.

compound="NC(=O)C1=CN(C2OC(COP(=O)(O)OP(=O)(O)OCC3OC(n4cnc5c(N)ncnc54)C(OP(=O)(O)O)C3O)C(O)C2O)C=CC1 (stereo not given) [NADPH]" unittext=min resultnumber=10.1
compound="CC(=O)NC(CC(=O)O)C(=O)O (stereo not given) [N-ACETYLASPARTATE]" unittext=min resultnumber=8.84
compound="Cn1cnc2c(ncn2C2OC(CO)C(O)C2O)c1=N (stereo not given) [1-METHYLADENOSINE]" unittext=min resultnumber=4.07
compound="NC(=O)Cc1c[nH]c2ccccc12 [INDOLE-3-ACETAMIDE]" unittext=min resultnumber=2.09
compound="O=C(O)C1(O)CC(O)C(O)C(O)C1 (stereo not given) [QUINATE]" unittext=min resultnumber=8.1
compound="O=C([O-])c1ccccn1 [PICOLINATE]" unittext=min resultnumber=6.41

## Input Form field: reported LC retention time of CC(C)(COP(=O)(O)OP(=O)(O)OCC1OC(n2cnc3c(N)ncnc32)C(O)C1OP(=O)(O)O)C(O)C(=O)NCCC(=O)NCCS (stereo not given) [COENZYME A]
## Output 9.12

## Input If you can, please state the reported LC retention time value of Nc1c([O-])cccc1C(=O)O [3-HYDROXYANTHRANILATE] .
## Output 6.24

## Input Suppose we examine the compound O=c1ccn(C2CC(O)C(CO)O2)c(=O)[nH]1 (stereo not given) [DEOXYURIDINE] ; what LC retention time value has been reported?
## Output 4.73

## Input What LC retention time value was documented for this compound, CC(C)CC(N)C(=O)O (stereo not given) [LEUCINE] ?
## Output 7.02

* * *

Quick list: LC retention time per entry.
Test: RP, Phenomenex Kinetex C18, 150 × 2.1 mm, 1.7 µm, 30 °C, 0.3 mL/min, estimated dead time 1.1 min; A: water + 0.1% formic acid, pH 3; B: acetonitrile + 0.1% formic acid, pH 3; gradient (min/%B) 0/2 14/100 17/100 17.1/2 25/2
Settings: stereoisomer not certain

Solved entries (count: 6):
compound="OCCc1c[nH]c2ccccc12 [INDOLE-3-ETHANOL]" result="5.55 min"
compound="CC(=O)NCCc1c[nH]c2ccc(O)cc12 [N-ACETYLSEROTONIN]" result="4.58 min"
compound="NC(=O)c1ncn(C2OC(COP(=O)(O)O)C(O)C2O)c1N (centres undefined) [AICAR]" result="1.38 min"
compound="CC(=O)c1ccc(O)cc1O [2',4'-DIHYDROXYACETOPHENONE]" result="6.35 min"
compound="NC(=O)c1ccc[n+](C2OC(COP(=O)(O)OP(=O)([O-])OCC3OC(n4cnc5c(N)ncnc54)C(O)C3O)C(O)C2O)c1 (stereo not drawn) [BETA-NICOTINAMIDE ADENINE DINUCLEOTIDE]" result="1.4 min"
compound="O=C(O)C=Cc1cnc[nH]1 [UROCANATE]" result="1.43 min"

## Input # lookup: LC retention time of CC=CC=CC(=O)[O-] [SORBATE]
## Output 4.51 min

## Input Could you share which LC retention time value was measured for O=c1[nH]c(=O)c2[nH]c(=O)[nH]c2[nH]1 [URATE] ?
## Output 1.52 min

## Input Suppose we examine the compound Nc1ncnc2c1ncn2C1CC(O)C(COP(=O)(O)O)O1 (centres undefined) [DEOXYADENOSINE MONOPHOSPHATE] ; what LC retention time value has been reported?
## Output 1.55 min
